Test: Determination of the logP values (formic acid method) by HPLC
Type: physicochemical
Details: reversed-phase HPLC column (C 18), pH 3.4, HPLC on reversed-phase column (C 18), acidic range (pH 3.4), 55° C.; Table 1; read-out: logP (HCOOH)
Each item that follows carries a reported chromatographic logP.

compound	chromatographic logP
O=C(NCc1ncccn1)c1cnn(-c2cccnc2)c1	0.51
Cc1nn(-c2cccnc2)cc1C(=O)NC(C)C1CC1 (stereo not shown)	1.58
CN(C)C(=O)c1cnn(-c2cccnc2)c1	0.6
CC(NC(=O)c1cnn(-c2cccnc2)c1)C1CC1 (stereo not shown)	1.38
CN(C(=O)c1cnn(-c2cccnc2)c1)C1CC1	1.09
Cc1nn(-c2cccnc2)cc1C(=O)NCCOc1cc(Cl)ccc1Cl	2.56
Cc1nn(-c2cccnc2)cc1C(=O)NCC(F)(F)F	1.45
CN(CC(F)(F)F)C(=O)c1cnn(-c2cccnc2)c1	1.43
CON(C)C(=O)c1cnn(-c2cccnc2)c1	0.97
O=C(NCC1CC1)c1cnn(-c2cccnc2)c1	1.16
CC(C)C(C#N)NC(=O)c1cnn(-c2cccnc2)c1 (stereo not shown)	1.4
CCNC(=O)c1cn(-c2cccnc2)nc1C	0.91
CN(C(=O)c1cnn(-c2cccnc2)c1)C(C)(C)C#N	1.09
O=C(NCc1nc(C2CC2)no1)c1cnn(-c2cccnc2)c1	1.21
O=C(NC1(C(F)(F)F)CC1)c1cnn(-c2cccnc2)c1	1.4
Cc1nn(-c2cccnc2)cc1C(=O)NCc1ccccn1	0.52
N#CC1(NC(=O)c2cnn(-c3cccnc3)c2)CC1	0.76
Cc1nn(-c2cccnc2)cc1C(=O)N(C)C	0.7
Cc1nn(-c2cccnc2)cc1C(=O)NCC1Cc2ccccc2O1 (stereo not shown)	1.9
CCNC(=O)c1cnn(-c2cccnc2)c1	0.64
CC(F)(F)CNC(=O)c1cnn(-c2cccnc2)c1	1.11
Cc1nn(-c2cccnc2)cc1C(=O)NCC(F)(F)C(F)(F)F	1.95
